Where do the numbers come from? From the Human Domainome abundance scans (Beltran et al. 2025).

B1: Kinesin-like protein KIF16B, residues 1213 to 1273; numbered along this chain, Q96L93 (parent)
chain: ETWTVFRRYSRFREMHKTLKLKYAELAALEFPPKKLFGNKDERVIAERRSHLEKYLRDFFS

# Variants of: B1
# Assay Protocol: abundance fitness (aPCA) (normalised: wild type 0, dead -1); higher = more abundant; growth selection in yeast, the domain comes from the species named
# Stated Conditions: Homo sapiens
# maps each entry to its abundance fitness

Q) Recorded abundance fitness of "ETWTVFRRYSRFREMHKTLKLKYAELAALEFPPKKQFGNKDERVIAERRSHLEKYLRDFFS" , please.
A) -0.976

Q) Recorded abundance fitness of "ETWTVFRRYSRFREMHTTLKLKYAELAALEFPPKKLFGNKDERVIAERRSHLEKYLRDFFS" , please.
A) -0.489

Q) Recorded abundance fitness of "ETWTVFRRYSRFREMHKTLKLKYAELAALEFPPKKLFGNKDERVIKERRSHLEKYLRDFFS" , please.
A) 0.186

Q) Recorded abundance fitness of "ETWTVFRRYSRFREMHKTLKLKYAELAALEFPPKKLFGNKDERVYAERRSHLEKYLRDFFS" , please.
A) -0.274

Q) Recorded abundance fitness of "ETWTVFRRESRFREMHKTLKLKYAELAALEFPPKKLFGNKDERVIAERRSHLEKYLRDFFS" , please.
A) -0.858

Q) Recorded abundance fitness of "ETWTVFRRYSRFREMHKTLKLKYAELAALEFPPKKLFGNKDERVIAERRCHLEKYLRDFFS" , please.
A) 0.256

Q) Recorded abundance fitness of "ETWTVFRRYSRFREMHKTLKLKYAGLAALEFPPKKLFGNKDERVIAERRSHLEKYLRDFFS" , please.
A) -0.384

Q) Recorded abundance fitness of "ETWTVFRRYSRFREMHKTLKLKYAELAALEFPPKKLFGNKDERVIALRRSHLEKYLRDFFS" , please.
A) -0.274

Q) Recorded abundance fitness of "ETWTVFRRYSRFREMHKKLKLKYAELAALEFPPKKLFGNKDERVIAERRSHLEKYLRDFFS" , please.
A) -0.056

Q) Recorded abundance fitness of "ETWTVFRRYSRFREMHKTLKLKYAELAALEFPPKNLFGNKDERVIAERRSHLEKYLRDFFS" , please.
A) 0.034

Q) Recorded abundance fitness of "ETWTVFRRYSRFREMHKTLKAKYAELAALEFPPKKLFGNKDERVIAERRSHLEKYLRDFFS" , please.
A) 0.356
